System: Vaccinia virus
assayName: Antiviral activity against Vaccinia virus infected in BSC-1 cells by plaque reduction assay
Format: functional, organism-based
conditionSet: Orthopoxvirus vaccinia
Listing of recorded EC50 by entry.

Example entries and their recorded answers appear below.
COc1ccc(Nc2c(-c3cc(Br)ccc3O)nc3ncccn23)cc1OC : 67.6 µM
Fc1ccc(Nc2c(-c3ccccn3)nc3ccc(Cl)cn23)cc1 : 3.8 µM
Oc1ccc(NCc2ccccc2OCc2ccccc2)cc1 : 7.1 µM
Cc1cc2n(n1)C(c1cc(C(C)(C)C)c(O)cc1O)Nc1ccccc1-2 (centres undefined) : 21.5 µM
Cn1c(=O)n(C)c2cc(NS(=O)(=O)c3ccc(C(C)(C)C)cc3)c(NCc3ccccc3)cc21 : 18.8 µM

Req: Retrieve EC50 measured for "COc1cc(NC(=O)c2cccc3c2C(=O)N(C2CCCCC2)C3)cc(OC)c1OC" and print it.
Resp: > 200 µM

Req: Retrieve EC50 measured for "COc1ccc(/C=C/c2nc(-c3ccccc3O)n(-c3ccccc3)n2)cc1OC" and print it.
Resp: > 200 µM
